Give IC50 for every item shown.
# System: CEM cells HIV-1 protection, formazan growth assay
# Run Description: NCI AIDS Antiviral Assay
# Particulars: measured here: growth of uninfected CEM cells
State just the number; it will be interpreted in µM.

Query string: # get_value(readout='IC50', item= `O=[N+]([O-])C(/C=C(\Cl)[N+](=O)[O-])=C1Nc2ccccc2N1` )
Result string: 35.5

Query string: # get_value(readout='IC50', item= CC1(C)N(OC2CCCCO2)C(c2ccccc2)C(c2ccccc2)=[N+]1[O-] (configuration not stated) )
Result string: 35.5

Query string: # get_value(readout='IC50', item= `O=Nc1c(NO)ccc2nn(-c3ccccc3)nc12` )
Result string: 1.32

Query string: # get_value(readout='IC50', item= COc1cc2c(cc1OC)C1CCc3ccccc3CN1CC2 (configuration not stated) )
Result string: 170

Query string: # get_value(readout='IC50', item= `O=NN(CCCl)C(=O)NC1CCCCC1` )
Result string: 35.5

Query string: # get_value(readout='IC50', item= CC1=NOC(C)(O)/C1=N/O (configuration not stated) )
Result string: 158

Query string: # get_value(readout='IC50', item= `CC1=CC(=O)NCCN1C` )
Result string: 1780

----------
# Tested on: CEM cells HIV-1 protection, formazan growth assay
# Run Description: NCI AIDS Antiviral Assay
Activity calls are given as the source filed them.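 How the source made its calls: active means compounds giving half or more protection of infected cells from virus-caused growth loss, again on retest; inactive means the rest.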
Endpoint: outcome

O=C(CC1(O)C(=O)Nc2c(Cl)cc(Cl)cc21)c1ccc(Cl)cc1 (stereo unspecified): inactive
CCOC(=O)C1=C(Nc2cccc3ccccc23)OCC1=O: inactive
CCOC1=NC(=O)CC(c2ccccc2)S1 (stereo unspecified): inactive
O=S(=O)(c1ccccc1)N1C2CCCC21 (stereo unspecified): inactive
CC(C)(C)c1cc(C(O)(C(F)(F)F)C(F)(F)F)c2c(c1)C(C(F)(F)F)(C(F)(F)F)OC(c1ccccc1)(C(C)(C)C)N2 (stereo unspecified): inactive

Query string: # get_value(readout='outcome', item= `O=C(C=Nc1ccccc1S)c1ccco1` )
Result string: inactive

Query string: # get_value(readout='outcome', item= COc1cc2c3c(c1OC)-c1ccccc1C(C(O)c1ccccc1)C3N(C)CC2 (stereo unspecified) )
Result string: inactive

Query string: # get_value(readout='outcome', item= `Nc1c(N=Nc2ccc(-c3ccc(N=Nc4c(S(=O)(=O)O)cc5cc(S(=O)(=O)O)c(N=Nc6ccccc6)c(O)c5c4N)cc3)cc2)ccc2c(S(=O)(=O)O)cccc12` )
Result string: inactive

Query string: # get_value(readout='outcome', item= CC1(C2CCC3(C)C(C2)C3Sc2ccccc2)OCCO1 (stereo unspecified) )
Result string: inactive

Query string: # get_value(readout='outcome', item= `COC(=O)/C(C#N)=C(\N)C(Cl)(Cl)Cl` )
Result string: inactive

Query string: # get_value(readout='outcome', item= COc1ccc(/C=C2\CCC(C)c3c2nc(N)c(C#N)c3-c2ccc(OC)c(OC)c2)cc1OC (stereo unspecified) )
Result string: inactive

----------
# Test system: CEM cells HIV-1 protection, formazan growth assay
# Run Description: NCI AIDS Antiviral Assay
# Particulars: measured here: growth of uninfected CEM cells
# Method: The ability of compounds to protect human CEM cells from HIV-1 infection is measured as a screen for new compounds capable of inhibiting the HIV virus. Five concentrations of drug were tested on uninfected and infected cells and cell growth was measured using a soluble formazan assay. […] Compounds that provided at least 50% protection were retested. Compounds that provided at least 50% protection on retest were listed as moderately active. […]
Endpoint: IC50

Query string: # get_value(readout='IC50', item= CC1(C)c2ccccc2N2C(c3ccccc3)=NOC21C (centres undefined) )
Result string: > 25.7 µM

Query string: # get_value(readout='IC50', item= CC1N(N2C(=O)CS(=O)(=O)C2C)C(=O)CS1(=O)=O (centres undefined) )
Result string: > 200 µM

Query string: # get_value(readout='IC50', item= `CC(C)OP(=O)(OC(C)C)C(=Nc1ccncc1)NNc1ccc([N+](=O)[O-])cc1` )
Result string: > 61.7 µM

Query string: # get_value(readout='IC50', item= `CC[n+]1c([S-])nn(C)c1-c1cnccn1` )
Result string: > 200 µM

Query string: # get_value(readout='IC50', item= `Cc1ncc(-c2nnnn2-c2ccccc2)c(C(=O)O)n1` )
Result string: > 200 µM

Query string: # get_value(readout='IC50', item= `O=C(Cn1c2ccc(Br)cc2c2nc3ccccc3nc21)N1CCOCC1` )
Result string: > 100 µM

Query string: # get_value(readout='IC50', item= `COc1cc(-c2cc(-c3ccccc3)nc(-c3c(OC)ccc4c(C)cc(=O)oc34)c2)cc(OC)c1OC` )
Result string: > 200 µM

Query string: # get_value(readout='IC50', item= `Cc1sc2nc3n(c(=O)c2c1C)N=C(c1ccccc1)CS3` )
Result string: > 200 µM

Query string: # get_value(readout='IC50', item= `CNC(=O)Nn1c(SC)nc2ccccc21` )
Result string: > 200 µM

Query string: # get_value(readout='IC50', item= `CN1CC=C(C#CC(C)(C)O)CC1` )
Result string: > 200 µM

Query string: # get_value(readout='IC50', item= `O=S(=O)(O)C(C(I)I)S(=O)(=O)O` )
Result string: > 200 µM

Query string: # get_value(readout='IC50', item= N#Cc1ccccc1NC(=O)C(O)C(O)C(O)C(O)C=O (centres undefined) )
Result string: > 200 µM

Query string: # get_value(readout='IC50', item= `COC(=O)C1=C(C(=O)OC)SC(=C(Br)C(=C2SC(C(=O)OC)=C(C(=O)OC)S2)C(=C2SC(C(=O)OC)=C(C(=O)OC)S2)C(Br)=C2SC(C(=O)OC)=C(C(=O)OC)S2)S1` )
Result string: > 2.51 µM

Query string: # get_value(readout='IC50', item= `COc1ccc(Cc2c(=O)[nH]nc3ccccc23)cc1` )
Result string: > 70.8 µM

Query string: # get_value(readout='IC50', item= `CCSC(SCC)=C1C(=O)N(c2ccccc2)N=C1C` )
Result string: > 44.7 µM

Query string: # get_value(readout='IC50', item= CC1=CCC2CC1NC(=O)CCOCCC(=O)NC2(C)C (centres undefined) )
Result string: > 100 µM

Query string: # get_value(readout='IC50', item= `COC(=O)c1c(-c2ccccc2)c(-c2ccccc2)[nH]c(=O)c1C#N` )
Result string: > 200 µM

Query string: # get_value(readout='IC50', item= `S=C(Nc1ccccc1)Nc1[nH]c(=S)sc1-c1nc2ccccc2[nH]1` )
Result string: > 1.86 µM

Query string: # get_value(readout='IC50', item= `CCN(CC)C(=O)C[n+]1c2ccccc2n2cc(N)ccc21` )
Result string: > 200 µM

----------
# System: CEM cells HIV-1 protection, formazan growth assay
# Run Description: NCI AIDS Antiviral Assay
# Particulars: measured here: growth of uninfected CEM cells
Endpoint: IC50

Query string: # get_value(readout='IC50', item= COc1ccc2nc3n(c2c1)C(c1c(F)cccc1Cl)SC3 (stereo not given) )
Result string: > 200 µM

Query string: # get_value(readout='IC50', item= COc1ccc(NC(=O)C2C(=O)N(c3ccc(OC)cc3)C(=O)/C2=N\NC(N)=O)cc1 (stereo not given) )
Result string: > 61.7 µM

Query string: # get_value(readout='IC50', item= C[C@]12CCc3nonc3C1CC[C@@H]1C2CC[C@]2(C)NC(=O)CCC12 (stereo not given in full) )
Result string: > 51.3 µM

Query string: # get_value(readout='IC50', item= O=S1(=O)C2C=CCC1C(c1ccccc1)CC2 (stereo not given) )
Result string: > 1000 µM

Query string: # get_value(readout='IC50', item= Cc1ccc(C(=O)C2=CN=C3C(=O)N(c4ccccc4)N(C)C3(C)C2=N)cc1 (stereo not given) )
Result string: > 200 µM

----------
# Test system: CEM cells HIV-1 protection, formazan growth assay
# Run Description: NCI AIDS Antiviral Assay
Give EC50 for every item shown.

Query string: Look up EC50 with CEM cells HIV-1 protection, formazan growth assay for this molecule: `O=C1NN(Cc2ccccc2)C(=O)N2CCC[C@@H]12`
Result string: > 200 µM

Query string: Look up EC50 with CEM cells HIV-1 protection, formazan growth assay for this molecule: `O=C(Cc1nc2c3c(ccc2[nH]c1=O)C(=O)c1ccccc1C3=O)C(=O)Nc1ccccc1[N+](=O)[O-]`
Result string: > 38.9 µM

Query string: Look up EC50 with CEM cells HIV-1 protection, formazan growth assay for this molecule: `COc1cc(OC)c2ccc(=O)oc2c1`
Result string: > 91.2 µM

Query string: Look up EC50 with CEM cells HIV-1 protection, formazan growth assay for this molecule: `O=C(NC(Cl)(C(F)(F)F)C(F)(F)F)c1ccc(F)cc1`
Result string: > 200 µM

Query string: Look up EC50 with CEM cells HIV-1 protection, formazan growth assay for this molecule: CC1(CO)OC(n2cnc3c(N)ncnc32)C(O)C1O (stereo not drawn)
Result string: > 891 µM

Query string: Look up EC50 with CEM cells HIV-1 protection, formazan growth assay for this molecule: `C=C(Br)CN(C(C)=O)C1CCCCC1`
Result string: > 200 µM

Query string: Look up EC50 with CEM cells HIV-1 protection, formazan growth assay for this molecule: `O=C(c1ccccc1)c1ccc(SSc2ccc(C(=O)c3ccccc3)cc2[N+](=O)[O-])c([N+](=O)[O-])c1`
Result string: > 200 µM

Query string: Look up EC50 with CEM cells HIV-1 protection, formazan growth assay for this molecule: COC(=O)C(=Cc1cc(OC)c(OC)c(OC)c1-c1cc2c(cc1C1(C)OCCS1)OCO2)C(=O)OC (stereo not drawn)
Result string: > 18.6 µM

Query string: Look up EC50 with CEM cells HIV-1 protection, formazan growth assay for this molecule: `N#CC(C#N)=C(N)/C(C#N)=C/c1cc(O)c(O)c(Br)c1`
Result string: > 77.6 µM

Query string: Look up EC50 with CEM cells HIV-1 protection, formazan growth assay for this molecule: O=C(OC1C(OC(=O)c2cccnc2)C(OC(=O)c2cccnc2)C(OC(=O)c2cccnc2)C(OC(=O)c2cccnc2)C1OC(=O)c1cccnc1)c1cccnc1 (stereo not drawn)
Result string: > 200 µM

Query string: Look up EC50 with CEM cells HIV-1 protection, formazan growth assay for this molecule: `O=C1CCCC(=O)NNC(=O)Nc2ccc(cc2)Cc2ccc(cc2)NC(=O)NN1`
Result string: > 30.9 µM

Query string: Look up EC50 with CEM cells HIV-1 protection, formazan growth assay for this molecule: `O=C1c2ccccc2C(=O)c2nc3c(O)cccc3cc21`
Result string: > 19.1 µM

Query string: Look up EC50 with CEM cells HIV-1 protection, formazan growth assay for this molecule: CCC(=O)OC1CC2=CC(=O)CCC2(C)C2CCC3(C)C(OC(=O)CC)CCC3C12 (stereo not drawn)
Result string: > 200 µM
